Taken from ChEMBL document CHEMBL3045650.

- Test system: Brassica juncea
- PROCEDURE_SUMMARY: Post-emergence herbicidal activity against Brassica juncea assessed as growth inhibition at emulsified concentrate of 150 g/ai ha after 15 days by greenhouse test
- Type: functional
OBSERVED_PROPERTY: inhibition (INH) (%)
Dear colleague, please return just the value in %, with no unit written.

CC(C)(C)OC(=O)CSc1nc2cc(-n3nc(C(C)(C)C)oc3=O)c(Cl)cc2s1	50
CCOC(=O)CCCSc1nc2cc(-n3nc(C(C)(C)C)oc3=O)c(F)cc2s1	50
CC(C)OC(=O)CSc1nc2cc(-n3nc(C(C)(C)C)oc3=O)c(Br)cc2s1	0

// next entry
I am curious: what inhibition (INH) value has been reported for CCOC(=O)C(C)(C)Sc1nc2cc(-n3nc(C(C)(C)C)oc3=O)c(Cl)cc2s1 ?
60

###

- System: Digitaria sanguinalis
- PROCEDURE_SUMMARY: Post-emergence herbicidal activity against Digitaria sanguinalis (hairy crabgrass) assessed as growth inhibition at emulsified concentrate of 150 g/ai ha after 15 days by greenhouse test
- Format: functional
OBSERVED_PROPERTY: inhibition (INH) (%)
Dear colleague, please return just the value in %, with no unit written.

Examples with answers:
CC(C)(C)OC(=O)CSc1nc2cc(-n3nc(C(C)(C)C)oc3=O)c(Cl)cc2s1	0
CCOC(=O)Sc1nc2cc(-n3nc(C(C)(C)C)oc3=O)c(Cl)cc2s1	0
CCOC(=O)C(C)Sc1nc2cc(-n3nc(C(C)(C)C)oc3=O)c(Br)cc2s1 (stereo not drawn)	0
CC(C)(C)c1nn(-c2cc3nc(SCC=C(Cl)Cl)sc3cc2F)c(=O)o1	40
CCOC(=O)CSc1nc2cc(-n3nc(C(C)(C)C)oc3=O)c(Cl)cc2s1	0
COC(=O)CSc1nc2cc(-n3nc(C(C)(C)C)oc3=O)c(Br)cc2s1	0
CCOC(=O)C(C)(C)Sc1nc2cc(-n3nc(C(C)(C)C)oc3=O)c(Cl)cc2s1	0
CCOC(=O)CCSc1nc2cc(-n3nc(C(C)(C)C)oc3=O)c(Cl)cc2s1	0
CCOC(=O)CSc1nc2cc(-n3nc(C(C)(C)C)oc3=O)c(F)cc2s1	0
CCOC(=O)Sc1nc2cc(-n3nc(C(C)(C)C)oc3=O)c(F)cc2s1	0

I am curious: what inhibition (INH) value has been reported for COC(=O)CSc1nc2cc(-n3nc(C(C)(C)C)oc3=O)c(F)cc2s1 ?
0

I am curious: what inhibition (INH) value has been reported for Cc1nn(-c2cc(NS(C)(=O)=O)c(Cl)cc2Cl)c(=O)n1C(F)F ?
70

I am curious: what inhibition (INH) value has been reported for CCOC(=O)C(C)(C)Sc1nc2cc(-n3nc(C(C)(C)C)oc3=O)c(F)cc2s1 ?
0

###

- Test system: Cyperus iria
- PROCEDURE_SUMMARY: Post-emergence herbicidal activity against Cyperus iria assessed as growth inhibition at emulsified concentrate of 37.5 g/ai ha after 15 days by greenhouse test
- Type: functional
OBSERVED_PROPERTY: inhibition (INH) (%)
Dear colleague, please return just the value in %, with no unit written.

CCOC(=O)CSc1nc2cc(-n3nc(C(C)(C)C)oc3=O)c(F)cc2s1	60

I am curious: what inhibition (INH) value has been reported for CCOC(=O)C(C)Sc1nc2cc(-n3nc(C(C)(C)C)oc3=O)c(Cl)cc2s1 (stereo not drawn) ?
60

I am curious: what inhibition (INH) value has been reported for CC(C)OC(=O)CSc1nc2cc(-n3nc(C(C)(C)C)oc3=O)c(F)cc2s1 ?
50

I am curious: what inhibition (INH) value has been reported for CCOC(=O)C(C)Sc1nc2cc(-n3nc(C(C)(C)C)oc3=O)c(F)cc2s1 (stereo not drawn) ?
90

I am curious: what inhibition (INH) value has been reported for CCCOC(=O)CSc1nc2cc(-n3nc(C(C)(C)C)oc3=O)c(F)cc2s1 ?
40

I am curious: what inhibition (INH) value has been reported for COC(=O)CSc1nc2cc(-n3nc(C(C)(C)C)oc3=O)c(Br)cc2s1 ?
40

I am curious: what inhibition (INH) value has been reported for CCOC(=O)CCSc1nc2cc(-n3nc(C(C)(C)C)oc3=O)c(Cl)cc2s1 ?
40

I am curious: what inhibition (INH) value has been reported for CCOC(=O)CCCSc1nc2cc(-n3nc(C(C)(C)C)oc3=O)c(F)cc2s1 ?
60
